method summary: binders of probe aFGF2 on microarray, primary screen, stem cell growth factor project, biochemical, small-molecule microarray, fluorescence 635/667 (AID 1067);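 also: measures binding of biotinylated aFGF2 protein to printed compounds on slides; z-score merges feature fluorescence and signal-to-noise across triplicate slides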
condition details: higher = more signal
endpoint label: composite z-score

Examples with answers:
{"molecule": "C=CCOC(=O)[C@H]1[C@@H]2C(=O)O[C@@H](c3ccccc3)[C@@H](c3ccccc3)N2[C@@H](c2ccc(OCCOC(=O)[C@H]3C[C@H]4C(=O)NCC(=O)N4[C@H]3c3cccc(OCCO)c3)cc2)[C@]12C(=O)Nc1ccc(I)cc12", "experimental value": -0.045}
{"molecule": "C=CCOC(=O)[C@H]1[C@@H]2C(=O)O[C@@H](c3ccccc3)[C@@H](c3ccccc3)N2[C@@H](c2ccc(OCCOC(=O)[C@@H]3C[C@@H]4C(=O)N[C@@H](Cc5ccccc5)C(=O)N4[C@@H]3c3ccc(O)cc3)cc2)[C@]12C(=O)Nc1ccc(I)cc12", "experimental value": -0.0861}
{"molecule": "CCCCN1CC=CC23O[C@@H]4C=CCCOC(=O)C4[C@H]2C(=O)N(CCO)[C@@H]3C1=O (stereo partly specified)", "experimental value": -0.276}
{"molecule": "CCCCCN1CC=CC23O[C@@H]4/C=C\\CCCOC(=O)C4[C@H]2C(=O)N(CCO)[C@@H]3C1=O (stereo partly specified)", "experimental value": -0.133}
{"molecule": "COC(=O)[C@H](Cc1ccccc1)N1CC(C)(OC)O[C@@H](Cc2ccccc2)[C@H]1/C=C/C1CC1 (stereo partly specified)", "experimental value": -0.073}

Now look at this entry.
For CC(C)N1CC=CC23O[C@@H]4/C=C\CCCOC(=O)C4[C@H]2C(=O)N(C(C)CO)[C@@H]3C1=O (stereo partly specified) , what is its reported composite z-score?
-0.201

###

method summary: yeast growth modulation, basal conditions, primary screen, YJM789 clinical isolate, OD600, 24 h (AID 1089);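 also: growth of clinical yeast isolate S. cerevisiae YJM 789 seeded 1000 cells per well; test concentration not given here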
condition details: S. cerevisiae YJM789 growth, higher = more signal, called active from +8 up or from −8 down
Use condition met when the recorded z-score is no lower than 0.1; use condition not met when it is lower.

Completed entries (count: 7):
{"compound": "COCCOC(=O)N1C(=O)[C@@]2(c3cc(C#CCNC(N)=O)ccc31)[C@H](C(N)=O)[C@H]1C(=O)O[C@H](c3ccccc3)[C@H](c3ccccc3)N1[C@@H]2c1ccc(O)cc1", "classification": "condition met"}
{"compound": "COc1ccc(C(=O)Nc2ccc(CN3C(=O)[C@@]4(O[C@@H](CC(=O)N(CCO)Cc5ccccc5)[C@H]([Si](C)(C)c5ccc(OC)cc5)[C@H]4C)c4ccccc43)cc2)cc1", "classification": "condition not met"}
{"compound": "Cc1ccc(S[C@]2(C(=O)NCCN3CCOCC3)CC(=O)N(C(C)C)[C@@H]2c2ccc(CO)cc2I)cc1", "classification": "condition not met"}
{"compound": "CN(C)C(=O)[C@]1(CCS(=O)(=O)c2ccccc2)N=C(c2ccc(OCCCO)cc2)O[C@@H]1c1ccccc1CN=[N+]=[N-]", "classification": "condition met"}
{"compound": "C=C(CC1([C@@H](NP(=O)(c2ccccc2)c2ccccc2)[C@H]2C[C@@H]2CCCC)CC1)c1cccc(OC)c1", "classification": "condition met"}
{"compound": "CCCC[C@@H](O)C1=C(C)Cn2c(=O)n(-c3ccccc3)c(=O)n2[C@H]1CO", "classification": "condition not met"}
{"compound": "O=C1NC(=O)C2C1C=CC(C(O)c1ccc(F)cc1)N2Nc1ccc(Cl)cc1Cl (stereo not drawn)", "classification": "condition not met"}

Now examine the next entry.
Does the compound CN1C(=O)C2C=CC(C(O)c3ccc([N+](=O)[O-])cc3)N(Nc3ccccc3)C2C1=O (stereo not drawn) have recorded z-score that is 0.1 or more?
condition met
